# Tested on: OKP-GS (renal cell carcinoma)
# EXPERIMENT: MTT anti-proliferative assay, OKP-GS
# Type: cell-based
# EXPERIMENTAL_CONDITIONS: Homo sapiens, 48 h
# From the text: To determine the selectivity of the synthesized compounds 7–16 toward various cancer cells and normal human cells, the anti-proliferative activity against K562 (chronic myelogenous leukemia), HL-60 (promyelocytic leukemia), MCF-7 (breast adenocarcinoma), HeLa (cervix carcinoma), HepG2 (human liver cancer), A549 (lung carcinoma), OKP-GS (renal cell carcinoma), and normal cells RPMI 1788 (B lymphocyte, the human cell line) was investigated. […]
Recorded IC50, one value per entry.
Give the value in µM but do not write µM after it.

The following compounds have reported results that may help.
Cc1cn(-c2cc(NC(=O)c3ccc(C)c(Nc4nccc(-c5cccnc5)n4)c3)cc(C(F)(F)F)c2)cn1 [Nilotinib, nilotinib, reference compound]    55
COc1nc(Cl)nc2c1ncn2Cc1ccc(C(=O)Nc2cccc(C(F)(F)F)c2)cc1 [Compound 13]    15.5
Cc1cn(-c2cc(NC(=O)c3ccc(Cn4cnc5c(Cl)nc(Cl)nc54)cc3)cc(C(F)(F)F)c2)cn1 [Compound 10]    24.8
O=C(Nc1cccc(C(F)(F)F)c1)c1ccc(Cn2cnc3c(Cl)nc(Cl)nc32)cc1 [Compound 7]    4.56

Return value of IC50 for input COc1nc(Cl)nc2c1ncn2Cc1ccc(C(=O)Nc2cc(-n3cnc(C)c3)cc(C(F)(F)F)c2)cc1 [Compound 14] , no commentary.
10.6

Return value of IC50 for input CNC(=O)c1cc(Oc2ccc(NC(=O)Nc3ccc(Cl)c(C(F)(F)F)c3)cc2)ccn1 [Sorafenib, sorafenib, reference compound] , no commentary.
13.6

* * *

# Test system: HL-60 (promyelocytic leukemia)
# EXPERIMENT: MTT anti-proliferative assay, HL-60
# Assay type: cell-based
# EXPERIMENTAL_CONDITIONS: Homo sapiens, 48 h
OBSERVABLE: IC50 (µM)
Give the value in µM but do not write µM after it.

Return value of IC50 for input COc1nc(Cl)nc2c1ncn2Cc1ccc(C(=O)Nc2cc(-n3cnc(C)c3)cc(C(F)(F)F)c2)cc1 [Compound 14] , no commentary.
48.6

Return value of IC50 for input Nc1nc(Cl)nc2c1ncn2Cc1ccc(C(=O)Nc2cccc(C(F)(F)F)c2)cc1 [Compound 15] , no commentary.
7.18

Return value of IC50 for input COc1nc(Cl)nc2c1ncn2Cc1ccc(C(=O)Nc2cccc(C(F)(F)F)c2)cc1 [Compound 13] , no commentary.
26.1

Return value of IC50 for input Cc1cn(-c2cc(NC(=O)c3ccc(C)c(Nc4nccc(-c5cccnc5)n4)c3)cc(C(F)(F)F)c2)cn1 [Nilotinib, nilotinib, reference compound] , no commentary.
55

Return value of IC50 for input O=C(Nc1cccc(C(F)(F)F)c1)c1ccc(Cn2cnc3c(Cl)nc(Cl)nc32)cc1 [Compound 7] , no commentary.
1.42

Return value of IC50 for input Cc1cn(-c2cc(NC(=O)c3ccc(Cn4cnc5c(Cl)nc(Cl)nc54)cc3)cc(C(F)(F)F)c2)cn1 [Compound 10] , no commentary.
1.52

Return value of IC50 for input Cc1cn(-c2cc(NC(=O)c3ccc(Cn4cnc5c(N)nc(F)nc54)cc3)cc(C(F)(F)F)c2)cn1 [Compound 11] , no commentary.
29.7

* * *

# TARGET_ENTITY: HER2 (Homo sapiens, UniProt P04626)
# Construct: purchased Promega
# Sequence (P04626 23-1255): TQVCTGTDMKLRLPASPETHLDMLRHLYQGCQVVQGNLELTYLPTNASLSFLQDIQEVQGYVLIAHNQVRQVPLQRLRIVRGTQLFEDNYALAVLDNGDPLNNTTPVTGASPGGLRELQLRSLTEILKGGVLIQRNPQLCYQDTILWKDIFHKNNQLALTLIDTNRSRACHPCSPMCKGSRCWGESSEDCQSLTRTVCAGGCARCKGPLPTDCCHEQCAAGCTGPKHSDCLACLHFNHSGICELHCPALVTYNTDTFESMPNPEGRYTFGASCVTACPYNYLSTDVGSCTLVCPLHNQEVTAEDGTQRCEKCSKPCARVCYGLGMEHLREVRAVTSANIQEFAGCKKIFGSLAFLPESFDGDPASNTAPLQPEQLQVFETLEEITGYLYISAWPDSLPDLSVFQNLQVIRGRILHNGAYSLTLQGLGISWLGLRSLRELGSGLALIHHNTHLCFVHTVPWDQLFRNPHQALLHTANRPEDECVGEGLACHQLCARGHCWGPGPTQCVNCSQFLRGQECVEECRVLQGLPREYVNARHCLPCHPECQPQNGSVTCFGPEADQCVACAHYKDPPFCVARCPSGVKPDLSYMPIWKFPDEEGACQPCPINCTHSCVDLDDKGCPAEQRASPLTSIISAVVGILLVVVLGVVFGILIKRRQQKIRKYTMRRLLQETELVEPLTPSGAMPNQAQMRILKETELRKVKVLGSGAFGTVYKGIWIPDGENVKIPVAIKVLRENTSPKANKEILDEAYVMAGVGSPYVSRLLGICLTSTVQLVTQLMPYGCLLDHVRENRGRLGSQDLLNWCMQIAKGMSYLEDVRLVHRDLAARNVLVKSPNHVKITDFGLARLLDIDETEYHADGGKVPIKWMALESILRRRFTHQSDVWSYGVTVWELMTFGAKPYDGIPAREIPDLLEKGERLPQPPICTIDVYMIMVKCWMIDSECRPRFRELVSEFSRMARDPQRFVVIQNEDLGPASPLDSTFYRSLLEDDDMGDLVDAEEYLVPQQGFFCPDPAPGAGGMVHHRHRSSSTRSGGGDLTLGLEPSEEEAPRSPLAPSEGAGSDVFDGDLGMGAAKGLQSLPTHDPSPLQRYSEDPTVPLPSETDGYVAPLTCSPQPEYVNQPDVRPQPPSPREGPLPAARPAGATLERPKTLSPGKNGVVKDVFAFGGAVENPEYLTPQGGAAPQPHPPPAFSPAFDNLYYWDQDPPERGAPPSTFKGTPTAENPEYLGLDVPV
# EXPERIMENT: Kinase Selectivity Profiling System TK-1 / ADP-Glo, HER2
# Type: biochemical
OBSERVABLE: inhibition at 1 µM (%)
Give the value in % but do not write % after it.

CS(=O)(=O)CCNCc1ccc(-c2ccc3ncnc(Nc4ccc(OCc5cccc(F)c5)c(Cl)c4)c3c2)o1 [Lapatinib, lapatinib, reference compound]    68

Return value of inhibition at 1 µM for input Cc1cn(-c2cc(NC(=O)c3ccc(Cn4cnc5c(Cl)nc(Cl)nc54)cc3)cc(C(F)(F)F)c2)cn1 , no commentary.
11

Return value of inhibition at 1 µM for input Cc1cn(-c2cc(NC(=O)c3ccc(Cn4cnc5c(N)ncnc54)cc3)cc(C(F)(F)F)c2)cn1 , no commentary.
0

Return value of inhibition at 1 µM for input COc1nc(Cl)nc2c1ncn2Cc1ccc(C(=O)Nc2cc(-n3cnc(C)c3)cc(C(F)(F)F)c2)cc1 , no commentary.
8

Return value of inhibition at 1 µM for input COc1nc(Cl)nc2c1ncn2Cc1ccc(C(=O)Nc2cccc(C(F)(F)F)c2)cc1 , no commentary.
0

Return value of inhibition at 1 µM for input Cc1cn(-c2cc(NC(=O)c3ccc(Cn4cnc5c(N)nc(Cl)nc54)cc3)cc(C(F)(F)F)c2)cn1 , no commentary.
0

Return value of inhibition at 1 µM for input Cc1cn(-c2cc(NC(=O)c3ccc(Cn4cnc5c(N)nc(F)nc54)cc3)cc(C(F)(F)F)c2)cn1 , no commentary.
0

Return value of inhibition at 1 µM for input Nc1nc(Cl)nc2c1ncn2Cc1ccc(C(=O)Nc2cccc(C(F)(F)F)c2)cc1 , no commentary.
0

Return value of inhibition at 1 µM for input Nc1ncnc2c1ncn2Cc1ccc(C(=O)Nc2cccc(C(F)(F)F)c2)cc1 , no commentary.
0

* * *

# TARGET_ENTITY: Bcr–Abl1 kinase (Homo sapiens, UniProt P00519)
# Construct: purchased Promega
# Sequence (P00519 whole entry): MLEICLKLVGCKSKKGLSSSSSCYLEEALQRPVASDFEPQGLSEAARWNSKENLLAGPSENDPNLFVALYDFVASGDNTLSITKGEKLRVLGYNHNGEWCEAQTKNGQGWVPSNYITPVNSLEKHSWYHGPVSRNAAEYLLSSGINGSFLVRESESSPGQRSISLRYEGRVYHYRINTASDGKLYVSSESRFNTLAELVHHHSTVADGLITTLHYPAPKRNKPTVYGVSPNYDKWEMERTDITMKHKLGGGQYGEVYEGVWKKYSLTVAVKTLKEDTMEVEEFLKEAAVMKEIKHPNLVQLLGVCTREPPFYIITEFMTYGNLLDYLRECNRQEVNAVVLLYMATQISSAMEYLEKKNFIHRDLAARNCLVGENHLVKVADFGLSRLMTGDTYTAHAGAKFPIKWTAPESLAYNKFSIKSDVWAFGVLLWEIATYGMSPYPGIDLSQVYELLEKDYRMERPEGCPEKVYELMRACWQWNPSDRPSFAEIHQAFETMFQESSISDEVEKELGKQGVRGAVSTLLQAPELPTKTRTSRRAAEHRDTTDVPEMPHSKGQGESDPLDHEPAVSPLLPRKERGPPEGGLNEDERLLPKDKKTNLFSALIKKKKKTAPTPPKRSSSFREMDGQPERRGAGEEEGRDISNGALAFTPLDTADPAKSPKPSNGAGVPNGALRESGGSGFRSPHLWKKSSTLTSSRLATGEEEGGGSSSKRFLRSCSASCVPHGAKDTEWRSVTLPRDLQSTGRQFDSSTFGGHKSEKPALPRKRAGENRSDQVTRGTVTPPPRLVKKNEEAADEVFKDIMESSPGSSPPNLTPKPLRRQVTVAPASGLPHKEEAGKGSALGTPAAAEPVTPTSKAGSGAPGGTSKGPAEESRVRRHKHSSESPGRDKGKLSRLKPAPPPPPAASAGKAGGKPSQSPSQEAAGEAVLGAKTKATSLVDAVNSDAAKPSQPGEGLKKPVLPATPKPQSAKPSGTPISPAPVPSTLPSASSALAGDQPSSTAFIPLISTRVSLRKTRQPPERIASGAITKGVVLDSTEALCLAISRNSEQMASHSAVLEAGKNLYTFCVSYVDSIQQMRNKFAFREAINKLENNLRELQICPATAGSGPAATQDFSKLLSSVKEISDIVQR
# EXPERIMENT: Abl1 Kinase Enzyme System / ADP-Glo kinase assay
# Assay type: biochemical
# EXPERIMENTAL_CONDITIONS: 10 µM compound, ATP 50 μM
Decide by inhibition at 10 µM: equal to or exceeding 20% means criterion met, less means criterion not met.

Illustrative cases are given below, each with its answer.
COc1nc(Cl)nc2c1ncn2Cc1ccc(C(=O)Nc2cccc(C(F)(F)F)c2)cc1    criterion met
Cc1cn(-c2cc(NC(=O)c3ccc(Cn4cnc5c(N)ncnc54)cc3)cc(C(F)(F)F)c2)cn1    criterion not met
Nc1nc(F)nc2c1ncn2Cc1ccc(C(=O)Nc2cccc(C(F)(F)F)c2)cc1    criterion met
COc1nc(Cl)nc2c1ncn2Cc1ccc(C(=O)Nc2cc(-n3cnc(C)c3)cc(C(F)(F)F)c2)cc1    criterion not met
Cc1cn(-c2cc(NC(=O)c3ccc(Cn4cnc5c(N)nc(Cl)nc54)cc3)cc(C(F)(F)F)c2)cn1    criterion met

Is the recorded value of inhibition at 10 µM equal to or greater than 20% for this molecule? Cc1cn(-c2cc(NC(=O)c3ccc(Cn4cnc5c(N)nc(F)nc54)cc3)cc(C(F)(F)F)c2)cn1
criterion met

Is the recorded value of inhibition at 10 µM equal to or greater than 20% for this molecule? Cc1cn(-c2cc(NC(=O)c3ccc(Cn4cnc5c(Cl)nc(Cl)nc54)cc3)cc(C(F)(F)F)c2)cn1
criterion met

Is the recorded value of inhibition at 10 µM equal to or greater than 20% for this molecule? Nc1ncnc2c1ncn2Cc1ccc(C(=O)Nc2cccc(C(F)(F)F)c2)cc1
criterion met

Is the recorded value of inhibition at 10 µM equal to or greater than 20% for this molecule? O=C(Nc1cccc(C(F)(F)F)c1)c1ccc(Cn2cnc3c(Cl)nc(Cl)nc32)cc1
criterion not met

Is the recorded value of inhibition at 10 µM equal to or greater than 20% for this molecule? Nc1nc(Cl)nc2c1ncn2Cc1ccc(C(=O)Nc2cccc(C(F)(F)F)c2)cc1
criterion met

* * *

Recorded log10(IC50), one value per entry.
# System: K562 (chronic myelogenous leukemia)
# EXPERIMENT: MTT anti-proliferative assay, K562
# Type: cell-based
# EXPERIMENTAL_CONDITIONS: Homo sapiens, 48 h
Parameter value (number): base-10 log of IC50 in µM.

Return value of log10(IC50) for input Nc1nc(Cl)nc2c1ncn2Cc1ccc(C(=O)Nc2cccc(C(F)(F)F)c2)cc1 [Compound 15] , no commentary.
1.49

Return value of log10(IC50) for input COc1nc(Cl)nc2c1ncn2Cc1ccc(C(=O)Nc2cccc(C(F)(F)F)c2)cc1 [Compound 13] , no commentary.
1.47

* * *

Recorded inhibition at 1 µM, one value per entry.
# TARGET_ENTITY: KDR (VEGFR-2) (Homo sapiens)
# Construct: purchased Promega
# Sequence (P35968 20-1356): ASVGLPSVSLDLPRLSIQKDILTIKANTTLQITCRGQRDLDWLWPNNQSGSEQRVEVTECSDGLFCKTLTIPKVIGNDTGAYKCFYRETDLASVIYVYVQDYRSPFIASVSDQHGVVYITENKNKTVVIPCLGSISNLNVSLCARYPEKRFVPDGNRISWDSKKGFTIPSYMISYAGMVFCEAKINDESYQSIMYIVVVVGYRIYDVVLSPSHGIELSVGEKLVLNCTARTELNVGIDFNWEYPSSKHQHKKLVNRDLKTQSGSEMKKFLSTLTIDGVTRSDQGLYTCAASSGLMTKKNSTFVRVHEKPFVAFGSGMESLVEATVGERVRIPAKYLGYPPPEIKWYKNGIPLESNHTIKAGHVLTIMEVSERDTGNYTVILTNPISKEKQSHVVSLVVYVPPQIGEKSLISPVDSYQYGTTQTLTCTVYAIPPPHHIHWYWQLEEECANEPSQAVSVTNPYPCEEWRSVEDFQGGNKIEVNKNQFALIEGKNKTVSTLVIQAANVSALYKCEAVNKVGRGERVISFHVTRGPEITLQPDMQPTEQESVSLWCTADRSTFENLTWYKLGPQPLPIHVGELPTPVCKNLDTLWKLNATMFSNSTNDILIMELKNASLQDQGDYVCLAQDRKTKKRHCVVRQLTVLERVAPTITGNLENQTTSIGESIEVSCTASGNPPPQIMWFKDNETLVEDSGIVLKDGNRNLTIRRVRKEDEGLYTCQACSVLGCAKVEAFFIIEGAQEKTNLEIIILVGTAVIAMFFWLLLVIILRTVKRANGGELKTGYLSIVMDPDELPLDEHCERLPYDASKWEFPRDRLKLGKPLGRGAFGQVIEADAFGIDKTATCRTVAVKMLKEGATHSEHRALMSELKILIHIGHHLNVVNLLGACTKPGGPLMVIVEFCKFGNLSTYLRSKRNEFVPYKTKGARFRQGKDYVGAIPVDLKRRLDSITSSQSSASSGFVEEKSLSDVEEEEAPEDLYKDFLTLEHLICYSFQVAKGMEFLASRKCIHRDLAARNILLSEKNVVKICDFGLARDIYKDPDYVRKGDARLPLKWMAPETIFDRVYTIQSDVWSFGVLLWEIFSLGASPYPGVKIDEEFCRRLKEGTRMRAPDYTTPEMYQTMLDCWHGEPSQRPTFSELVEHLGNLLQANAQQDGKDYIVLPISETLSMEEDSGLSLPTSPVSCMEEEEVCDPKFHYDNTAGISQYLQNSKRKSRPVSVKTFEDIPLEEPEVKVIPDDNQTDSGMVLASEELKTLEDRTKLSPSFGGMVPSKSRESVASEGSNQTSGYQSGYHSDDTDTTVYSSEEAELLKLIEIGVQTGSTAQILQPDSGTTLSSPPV
# EXPERIMENT: Kinase Selectivity Profiling System TK-1 / ADP-Glo, KDR
# Type: biochemical
# Experimental: At the end, 10 μL of kinase detection reagent was added into the well and incubated for 30 min to produce a luminescence signal.
Note: a bare number is incomplete; add the unit.

The following compounds have reported results that may help.
Nc1nc(F)nc2c1ncn2Cc1ccc(C(=O)Nc2cccc(C(F)(F)F)c2)cc1    14%
COc1nc(Cl)nc2c1ncn2Cc1ccc(C(=O)Nc2cc(-n3cnc(C)c3)cc(C(F)(F)F)c2)cc1    27%
Cc1cn(-c2cc(NC(=O)c3ccc(Cn4cnc5c(N)ncnc54)cc3)cc(C(F)(F)F)c2)cn1    0%
Nc1ncnc2c1ncn2Cc1ccc(C(=O)Nc2cccc(C(F)(F)F)c2)cc1    2%
COc1nc(Cl)nc2c1ncn2Cc1ccc(C(=O)Nc2cccc(C(F)(F)F)c2)cc1    30%

Return value of inhibition at 1 µM for input Nc1nc(Cl)nc2c1ncn2Cc1ccc(C(=O)Nc2cccc(C(F)(F)F)c2)cc1 , no commentary.
13%

Return value of inhibition at 1 µM for input Cc1cn(-c2cc(NC(=O)c3ccc(Cn4cnc5c(Cl)nc(Cl)nc54)cc3)cc(C(F)(F)F)c2)cn1 , no commentary.
16%

Return value of inhibition at 1 µM for input O=C(Nc1cccc(C(F)(F)F)c1)c1ccc(Cn2cnc3c(Cl)nc(Cl)nc32)cc1 , no commentary.
11%

Return value of inhibition at 1 µM for input Cc1cn(-c2cc(NC(=O)c3ccc(Cn4cnc5c(N)nc(F)nc54)cc3)cc(C(F)(F)F)c2)cn1 , no commentary.
12%

Return value of inhibition at 1 µM for input Cc1cn(-c2cc(NC(=O)c3ccc(Cn4cnc5c(N)nc(Cl)nc54)cc3)cc(C(F)(F)F)c2)cn1 , no commentary.
12%
